These measurements were taken from PubChem BioAssay (NCI).

# TGI values compiled below
- Tested on: NCI/ADR-RES ovarian
- Assay Text: NCI tumour cell line growth inhibition, 48 h
Experimental Readout: TGI

{"Compound": "COc1cc(C2c3cc4c(cc3[C@H](OCCN(C)C)[C@@H]3COC(=O)C23)OCO4)cc(OC)c1O (stereo partly drawn)", "Target Under Test": "NCI/ADR-RES ovarian", "Result": "15.1 µM"}
{"Compound": "COc1ccc(-c2c(C#N)c(NC(=S)NC(=O)c3ccccc3)nc3c2CCCC3)cc1OC", "Target Under Test": "NCI/ADR-RES ovarian", "Result": "> 100 µM"}
{"Compound": "COc1cc2c3c(n(CCCCl)c(=O)c2cc1OC)-c1ccccc1C3=O", "Target Under Test": "NCI/ADR-RES ovarian", "Result": "> 100 µM"}
{"Compound": "CCOC(=O)Cn1sc2ncc([N+](=O)[O-])cc2c1=O", "Target Under Test": "NCI/ADR-RES ovarian", "Result": "35.5 µM"}
{"Compound": "CCCN=C(NC(=O)c1ccc(Cl)cc1)SC", "Target Under Test": "NCI/ADR-RES ovarian", "Result": "> 100 µM"}
{"Compound": "Cn1cc(C2=C(c3cn(CCCN=C(N)N)c4ccccc34)C(=O)NC2=O)c2ccccc21", "Target Under Test": "NCI/ADR-RES ovarian", "Result": "> 25 µM"}
{"Compound": "O=C(O)C1C(C(=O)O)C(C(=O)O)C1C(=O)O (stereo not drawn)", "Target Under Test": "NCI/ADR-RES ovarian", "Result": "> 100 µM"}
{"Compound": "CC[C@@H]1/C=C/C=C/C[C@H](C)[C@@H](O)[C@](C)(O)C(=O)[C@H](C)[C@@H](O)[C@H](C)C(=O)[C@H](C)[C@@H](O)[C@H](C)/C=C/C(=O)O[C@H]2[C@@H](C)[C@@H](CC1)O[C@]1(O[C@H](CC(C)O)[C@H](C)CC1=O)[C@@H]2C (stereo partly drawn)", "Target Under Test": "NCI/ADR-RES ovarian", "Result": "14.8 µM"}
{"Compound": "O=P(O)(O)CN1CCN(CP(=O)(O)O)CCN(CP(=O)(O)O)CCN(CP(=O)(O)O)CC1", "Target Under Test": "NCI/ADR-RES ovarian", "Result": "> 100 µM"}
{"Compound": "C=CCN1C(=O)/C(=C/c2ccccc2)NC1=S", "Target Under Test": "NCI/ADR-RES ovarian", "Result": "> 100 µM"}
{"Compound": "CCOC(=O)N/N=C(/N)Cc1ccccc1", "Target Under Test": "NCI/ADR-RES ovarian", "Result": "> 100 µM"}
{"Compound": "CC(C)(C)C1=CC(=CC=C2C=CN(CCCCCCCCCCCO)C=C2)C=C(C(C)(C)C)C1=O", "Target Under Test": "NCI/ADR-RES ovarian", "Result": "11.7 µM"}
{"Compound": "C[C@]12CC[C@@H]3c4ccc(O)cc4CC[C@H]3[C@@H]1CC[C@@H]2NS(=O)(=O)c1ccc(C(F)(F)F)cc1", "Target Under Test": "NCI/ADR-RES ovarian", "Result": "5.7 µM"}
{"Compound": "O=[N+]([O-])c1ccc2nnnn2c1", "Target Under Test": "NCI/ADR-RES ovarian", "Result": "> 100 µM"}
{"Compound": "Cc1nc(N)c(N2CCNCC2)c(=O)[nH]1", "Target Under Test": "NCI/ADR-RES ovarian", "Result": "> 100 µM"}
{"Compound": "COc1ccc(C2CC(=O)c3c(O)c(OC)c(OC)c(OC)c3O2)c(O)c1 (stereo not drawn)", "Target Under Test": "NCI/ADR-RES ovarian", "Result": "20.6 µM"}
{"Compound": "C=C1CC[C@@]2(OC1)OC1C[C@H]3[C@@H]4CC=C5C[C@@H](O)CC(OC6OCC(OC(=O)[C@@H](O)[C@@H](C)CC)C(OC(C)=O)C6OC6OC(C)C(O)C(O)C6O)[C@]5(C)[C@H]4CC[C@]3(C)C1[C@@H]2C (stereo partly drawn)", "Target Under Test": "NCI/ADR-RES ovarian", "Result": "6 µM"}
{"Compound": "COc1cc(-c2c(C#N)c(N)n3c(nc4ccccc43)c2C#N)cc(Br)c1OC", "Target Under Test": "NCI/ADR-RES ovarian", "Result": "> 100 µM"}
{"Compound": "Cn1cc(C2=C(c3cn(C)c4c(N)cccc34)C(=O)NC2=O)c2ccccc21", "Target Under Test": "NCI/ADR-RES ovarian", "Result": "> 25 µM"}
{"Compound": "Cc1ccc(S(=O)(=O)OC2C3OC(C)(C)OC3OC2C(c2cc(O)c3c(c2O)C(=O)c2ccccc2C3=O)c2cc(O)c3c(c2O)C(=O)c2ccccc2C3=O)cc1 (stereo not drawn)", "Target Under Test": "NCI/ADR-RES ovarian", "Result": "> 10 µM"}
{"Compound": "CCN(CC)Cc1cc(Nc2ccnc3ccc4c(nnn4C)c23)ccc1O", "Target Under Test": "NCI/ADR-RES ovarian", "Result": "52.7 µM"}
{"Compound": "Cc1cc(C)cc(Nc2nnc3n2S(=O)(=O)c2cc(C#N)c(Cl)cc2S3)c1", "Target Under Test": "NCI/ADR-RES ovarian", "Result": "6.51 µM"}
{"Compound": "CCOC(=O)/C(O)=C(/C=NC(=S)c1ccncc1)C(=O)OCC", "Target Under Test": "NCI/ADR-RES ovarian", "Result": "> 100 µM"}
{"Compound": "NCCc1nc(-c2nc(C(=O)O)cs2)cs1", "Target Under Test": "NCI/ADR-RES ovarian", "Result": "> 100 µM"}
{"Compound": "Cc1ccccc1Nc1cn(COCc2ccccc2)c(=O)[nH]c1=O", "Target Under Test": "NCI/ADR-RES ovarian", "Result": "> 100 µM"}
{"Compound": "CCC1c2[nH]c3ccccc3c2C[C@H]2C(=O)NC(CCC(=O)OC(C)(C)C)C(=O)N12 (stereo partly drawn)", "Target Under Test": "NCI/ADR-RES ovarian", "Result": "> 100 µM"}
{"Compound": "Brc1ccc2c(-c3nc(-c4c[nH]c5ccc(Br)cc45)cs3)c[nH]c2c1", "Target Under Test": "NCI/ADR-RES ovarian", "Result": "18.1 µM"}
{"Compound": "O=C(Nc1ccc2nc(-c3ccccc3)cn2c1)Oc1ccccc1", "Target Under Test": "NCI/ADR-RES ovarian", "Result": "> 100 µM"}

* * *

- Test system: DU-145 prostate
- Assay Text: NCI tumour cell line growth inhibition, 48 h

{"Molecule": "CCOC(=O)c1c(SC(=O)/C=C/c2ccccc2)n(-c2ccccc2)c(=S)n(-c2ccccc2)c1=O", "Target Under Test": "DU-145 prostate", "TGI": "> 100 µM"}
{"Molecule": "NC(N)=NC(N)=Nc1cc2ccccc2c2ccccc12", "Target Under Test": "DU-145 prostate", "TGI": "25 µM"}
{"Molecule": "COc1ccc(OC(=O)O[C@H]2[C@H](O[C@H]3[C@@H](O)COC(O[C@H]4C[C@H]5[C@@H]6CC=C7C[C@@H](O)CC[C@]7(C)[C@H]6CC[C@]5(C)[C@H]4[C@H](C)C(=O)CCC(C)C)[C@@H]3OC(C)=O)OC[C@@H](O)[C@@H]2O)cc1 (some centres not stated)", "Target Under Test": "DU-145 prostate", "TGI": "22.7 µM"}
{"Molecule": "C[N+](C)(N)CCC[N+](C)(C)N", "Target Under Test": "DU-145 prostate", "TGI": "> 100 µM"}
{"Molecule": "Cc1ccc2nc3ccccc3c(C3C4C(=O)N(c5ccc(Br)cc5Cl)C(=O)C4ON3C(C(N)=O)c3ccccc3)c2c1 (configuration not stated)", "Target Under Test": "DU-145 prostate", "TGI": "> 25 µM"}
{"Molecule": "O=C(Nc1ccc2nc(-c3ccccc3)cn2c1)Oc1ccccc1", "Target Under Test": "DU-145 prostate", "TGI": "> 100 µM"}
{"Molecule": "COc1ccc(OC)c(/C=C/NC=O)c1", "Target Under Test": "DU-145 prostate", "TGI": "> 100 µM"}
{"Molecule": "CCN(CC)Cc1cc(Nc2ccnc3ccc4c(nnn4C)c23)ccc1O", "Target Under Test": "DU-145 prostate", "TGI": "31.4 µM"}
{"Molecule": "Nc1nc(Cl)cc(NCC2(CO)CC(OCc3ccccc3)C2)n1 (configuration not stated)", "Target Under Test": "DU-145 prostate", "TGI": "> 100 µM"}
{"Molecule": "COc1ccc(-c2c(C#N)c(NC(=S)NC(=O)c3ccccc3)nc3c2CCCC3)cc1OC", "Target Under Test": "DU-145 prostate", "TGI": "> 100 µM"}
{"Molecule": "NS(=O)(=O)c1nnc(NC(=O)c2ccccc2)s1", "Target Under Test": "DU-145 prostate", "TGI": "> 100 µM"}
{"Molecule": "Cc1c2c(nn1-c1ccc(S(=O)(=O)/N=C3\\SCC(=O)N3C(=O)c3ccccc3)cc1)-c1ccccc1CC2", "Target Under Test": "DU-145 prostate", "TGI": "> 100 µM"}
{"Molecule": "O=C1C(Br)=CC2(C=C1Br)CCN=c1c(O)c3c(c(O)c12)=NC=N3", "Target Under Test": "DU-145 prostate", "TGI": "29.6 µM"}
{"Molecule": "Clc1ccc2c(NCCCCN=Cc3ccccc3)ccnc2c1", "Target Under Test": "DU-145 prostate", "TGI": "80.8 µM"}
{"Molecule": "COc1ccc(C2CC(=O)c3c(O)c(OC)c(OC)c(OC)c3O2)c(O)c1 (configuration not stated)", "Target Under Test": "DU-145 prostate", "TGI": "15.9 µM"}
{"Molecule": "CC(C)CC(N)C(=O)O (configuration not stated)", "Target Under Test": "DU-145 prostate", "TGI": "> 100 µM"}
{"Molecule": "CCOC(=O)N/N=C(/N)Cc1ccccc1", "Target Under Test": "DU-145 prostate", "TGI": "> 100 µM"}
{"Molecule": "N#C/C(C(=S)Nc1ccccc1)=C1/NN=C2c3ccccc3C(=O)NN21", "Target Under Test": "DU-145 prostate", "TGI": "> 100 µM"}
{"Molecule": "COc1cc2c3c(n(CCCBr)c(=O)c2cc1OC)-c1ccc(NC(C)=O)cc1C3=O", "Target Under Test": "DU-145 prostate", "TGI": "> 100 µM"}
{"Molecule": "Cc1cc(O)c(/C=N/C(=S)NCCc2ccccc2)c(=O)o1", "Target Under Test": "DU-145 prostate", "TGI": "> 100 µM"}
{"Molecule": "COC(=O)CCC(=O)NC1c2cccc3cccc(c23)Cn2c(=O)n(C)c(=O)n21 (configuration not stated)", "Target Under Test": "DU-145 prostate", "TGI": "> 100 µM"}
{"Molecule": "O=C(NCCCNC(=O)c1ccc2cc(O)c(O)cc2c1)c1ccc2cc(O)c(O)cc2c1", "Target Under Test": "DU-145 prostate", "TGI": "82.2 µM"}
